Values compiled from the RepoRT retention time repository (doi:10.1016/j.jchromb.2020.122105).

# protocol: RP, Waters CORTECS T3, 100 × 2.1 mm, 2.7 µm, 0.1 mL/min, estimated dead time 2.2 min; A: water + 0.1% formic acid, pH 3; B: methanol + 0.1% formic acid, pH 3; gradient (min/%B) 0/5 5/5 25/95 25.1/100 35/100 35.1/5 45/5
# condition notes: stereoisomer not certain
endpoint name: LC retention time (min)
I only need the number, in min, no unit after it.

Guide cases for LC retention time, answers given:
1. N[C@@H](Cc1ccccc1)C(=O)O :: 17.2
2. CC(C)(CO)C(O)C(=O)NCCC(=O)O (stereo not given) :: 11.2
3. NC(=O)c1cccnc1 [NICOTINAMIDE] :: 3.38
4. O=C(O)c1cc(=O)c2ccccc2[nH]1 [4-HYDROXY-2-QUINOLINECARBOXYLIC ACID] :: 14.2

Kindly review the next molecule as well.
### Prompt Which LC retention time is listed for Nc1nc2nccnc2c(=O)[nH]1 ?
### Response 4.93

* * *

# protocol: RP, Waters CORTECS T3, 100 × 2.1 mm, 2.7 µm, 0.25 mL/min, estimated dead time 0.88 min; A: water + 0.1% formic acid, pH 3; B: methanol + 0.1% formic acid, pH 3; gradient (min/%B) 0/0 1/0 6/5 30/100 35/100 35.1/0 40/0
# condition notes: stereoisomer not certain
Listing of recorded log10(LC retention time) by entry.
Recorded LC retention time (log10, min)

1) CC12CCC(=O)C=C1CCC1C2C(=O)CC2(C)C1CCC2(O)C(=O)CO (centres undefined) [CORTISONE] :: 1.29
2) Cn1cnc2c(ncn2C2OC(CO)C(O)C2O)c1=N (centres undefined) [1-METHYLADENOSINE] :: 0.94
3) CNCCc1c[nH]c2ccccc12 [N-METHYLTRYPTAMINE] :: 1.02
4) N[C@@H](CCOC(=O)CCC(=O)O)C(=O)O [O-SUCCINYL-L-HOMOSERINE] :: 0.04
5) NC(CCSSCCC(N)C(=O)O)C(=O)O (centres undefined) [HOMOCYSTINE] :: 0.04
6) N[C@@H](Cc1cc(I)c(Oc2ccc(O)cc2)c(I)c1)C(=O)O [3,5-DIIODO-L-THYRONINE] :: 1.27
7) O=C(O)c1cc(=O)c2cccc(O)c2[nH]1 [XANTHURENIC ACID] :: 1.05
8) NC(Cc1cc(I)c(Oc2cc(I)c(O)c(I)c2)c(I)c1)C(=O)O (centres undefined) [THYROXINE] :: 1.34

### Prompt Would you kindly share the measured log10(LC retention time) for CC(=O)N[C@@H](Cc1ccccc1)C(=O)O [N-ACETYL-L-PHENYLALANINE] ?
### Response 1.16

### Prompt Request the reported log10(LC retention time) associated with NC(Cc1ccc(Oc2cc(I)c(O)c(I)c2)c(I)c1)C(=O)O (centres undefined) [3,3',5'-TRIIODOTHYRONINE]
### Response 1.32

### Prompt Return reported log10(LC retention time); argument: CC(C)=CCNc1ncnc2nc[nH]c12 [N6-(DELTA2-ISOPENTENYL)-ADENINE]
### Response 1.15

### Prompt What does the data say about its log10(LC retention time)? Entry: Nc1ncnc2c1ncn2C1CC(O)C(COP(=O)(O)O)O1 (centres undefined) [DAMP]
### Response 0.04
